Task for the reader: assign each of the following molecules its reported IC50.
test system: Plasmodium falciparum; experiment: Antimalarial activity against chloroquine-resistant synchronized late stage trophozoite Plasmodium falciparum RKL-9 infected in human RBC assessed as inhibition of plasmodial growth by giemsa staining based analysis; type: functional, organism-based; settings: RKL-9, Erythrocyte
Answers are plain numbers, in µM.

// worked examples, IC50 included
[[record]]
molecule = "CCC(C)[C@H](c1nc2ccccc2n1Cc1cn(Cc2ccccc2)nn1)N1C(=O)c2ccccc2C1=O (stereo not given in full)"
readout_number = 1.88

[[record]]
molecule = "CCC(C)[C@H](c1nc2ccccc2n1Cc1cn(-c2ccc(C(F)(F)F)cc2)nn1)N1C(=O)c2ccccc2C1=O (stereo not given in full)"
readout_number = 1.62

[[record]]
molecule = "Cc1ccc2c(c1)C(=O)N([C@H](CC(C)C)c1nc3ccccc3n1Cc1cn(-c3ccc(Cl)cc3)nn1)C2=O"
readout_number = 1.71

[[record]]
molecule = "CCC(C)[C@H](c1nc2ccccc2n1Cc1cn(-c2ccc(F)cc2)nn1)N1C(=O)c2ccc(C)cc2C1=O (stereo not given in full)"
readout_number = 3.43


Now look at this one.
IC50 reported for this molecule CC(C)[C@H](c1nc2ccccc2n1Cc1cn(-c2ccc(C(F)(F)F)cc2)nn1)N1C(=O)c2ccccc2C1=O : 3.92

* * *

Task for the reader: assign each of the following compounds its reported Activity.
tested on: Plasmodium falciparum; test: Induction of mitochondrial membrane depolarization in trophozoite stage Plasmodium falciparum 3D7 infected in human RBC assessed as red to green fluorescence ratio at IC50 concentration incubated for 3 hrs by JC-1 dye based spectrofluorometric analysis (reference value: 6.96+/-0.94); format: functional
One number for each entry.

[[record]]
compound = "CC(C)[C@H](c1nc2ccccc2n1Cc1cn(-c2ccc(C(F)(F)F)cc2)nn1)N1C(=O)c2ccccc2C1=O"
test_target = "Plasmodium falciparum"
readout_number = 5.06

[[record]]
compound = "Cc1ccc2c(c1)C(=O)N([C@H](CC(C)C)c1nc3ccccc3n1Cc1cn(-c3ccc(Cl)cc3)nn1)C2=O"
test_target = "Plasmodium falciparum"
readout_number = 4.62

[[record]]
compound = "CCC(C)[C@H](c1nc2ccccc2n1Cc1cn(-c2ccc(F)cc2)nn1)N1C(=O)c2ccc(C)cc2C1=O (some centres undefined)"
test_target = "Plasmodium falciparum"
readout_number = 5.56


Activity reported for this compound CCC(C)[C@H](c1nc2ccccc2n1Cc1cn(-c2ccc(C(F)(F)F)cc2)nn1)N1C(=O)c2ccccc2C1=O (some centres undefined) : 4.61

* * *

assay: Cytotoxicity against human U-937 cells assessed as reduction in cell viability incubated for 24 hrs by MTT assay; assay type: toxicity, cell-based
Task for the reader: assign each of the following molecules its reported CC50 at 24 h.
Answers are plain numbers, in nM.

[[record]]
molecule = "CCC(C)C(c1nc2ccccc2n1Cc1cn(-c2ccc(F)cc2)nn1)N1C(=O)c2ccccc2C1=O (centres undefined)"
readout_type = "CC50 at 24 h"
readout_number = 28800

[[record]]
molecule = "CC(C)CC(c1nc2ccccc2n1Cc1cn(-c2ccccc2)nn1)N1C(=O)c2ccccc2C1=O (centres undefined)"
readout_type = "CC50 at 24 h"
readout_number = 910

[[record]]
molecule = "CC(C)C(c1nc2ccccc2n1Cc1cn(-c2ccc(F)cc2)nn1)N1C(=O)c2ccccc2C1=O (centres undefined)"
readout_type = "CC50 at 24 h"
readout_number = 780


Now look at this one.
CC50 at 24 h reported for this molecule CCC(C)C(c1nc2ccccc2n1Cc1c[nH]nn1)N1C(=O)c2ccccc2C1=O (centres undefined) : 2080
